SYSTEM_TESTED: HLA-A*26:01
ASSAY_METHOD_TEXT: IEDB peptide-MHC binding, purified MHC/direct/fluorescence; filed as Kd, often an IC50 or EC50 that approximates it; bounds were set here for any values at or beyond the usual limits of such assays
SETTINGS: source organism: Sudan ebolavirus - Uganda (2000)
MEASURED_QUANTITY: Kd (nM)
Unit nM implied. Number only.

Kd recorded for this sequence, ATAAATEAY , is 216

---

SYSTEM_TESTED: HLA-A*02:19
ASSAY_METHOD_TEXT: IEDB peptide-MHC binding, purified MHC/competitive/fluorescence; filed as Kd, often an IC50 or EC50 that approximates it; bounds were set here for any values at or beyond the usual limits of such assays
SETTINGS: source organism: Pseudomonas aeruginosa UCBPP-PA14
MEASURED_QUANTITY: Kd

Test item FLDDASNSA ; HLA-A*02:19; reported Kd was 100 nM

---

SYSTEM_TESTED: HLA-B*27:05
ASSAY_METHOD_TEXT: IEDB peptide-MHC binding, purified MHC/direct/fluorescence; filed as Kd, often an IC50 or EC50 that approximates it; bounds were set here for any values at or beyond the usual limits of such assays
SETTINGS: source organism: Vibrio parahaemolyticus
MEASURED_QUANTITY: Kd

Kd recorded for this sequence, YPKCDLVEL , is ≥ 20 µM

---

SYSTEM_TESTED: HLA-A*01:01
ASSAY_METHOD_TEXT: IEDB peptide-MHC binding, purified MHC/direct/fluorescence; filed as Kd, often an IC50 or EC50 that approximates it; bounds were set here for any values at or beyond the usual limits of such assays
SETTINGS: source organism: Rickettsia conorii
MEASURED_QUANTITY: Kd

Kd recorded for this sequence, RTGDIGCFK , is ≥ 20 µM

---

SYSTEM_TESTED: HLA-A*02:01
ASSAY_METHOD_TEXT: IEDB peptide-MHC binding, purified MHC/competitive/radioactivity; filed as Kd, often an IC50 or EC50 that approximates it; bounds were set here for any values at or beyond the usual limits of such assays
SETTINGS: source organism: Dengue virus 2 Jamaica/1409/1983
MEASURED_QUANTITY: Kd (µM)
Unit µM implied. Number only.

Kd recorded for this sequence, LMMATIGIAL , is 0.0112

---

SYSTEM_TESTED: HLA-B*15:01
ASSAY_METHOD_TEXT: IEDB peptide-MHC binding, purified MHC/competitive/fluorescence; bounds were set here for any values at or beyond the usual limits of such assays
SETTINGS: source organism: Sudan ebolavirus
For each record, write down the corresponding IC50.
Unit µM implied. Number only.

IC50 recorded for this sequence, FQLNDTIHL , is 50.5

IC50 recorded for this sequence, TVIYRGVNF , is 28.3

---

SYSTEM_TESTED: HLA-B*40:01
ASSAY_METHOD_TEXT: IEDB peptide-MHC binding, purified MHC/direct/fluorescence; filed as Kd, often an IC50 or EC50 that approximates it; bounds were set here for any values at or beyond the usual limits of such assays
SETTINGS: source organism: Corynebacterium efficiens
MEASURED_QUANTITY: Kd

Kd recorded for this sequence, ITWETPMIW , is ≥ 20 µM

---

SYSTEM_TESTED: HLA-B*58:01
ASSAY_METHOD_TEXT: IEDB peptide-MHC binding, purified MHC/direct/fluorescence; filed as Kd, often an IC50 or EC50 that approximates it; bounds were set here for any values at or beyond the usual limits of such assays
SETTINGS: source organism: Vibrio parahaemolyticus
MEASURED_QUANTITY: Kd

Test item YPKCDLVEL ; HLA-B*58:01; reported Kd was ≥ 20 µM

---

SYSTEM_TESTED: HLA-B*18:01
ASSAY_METHOD_TEXT: IEDB peptide-MHC binding, purified MHC/competitive/radioactivity; filed as Kd, often an IC50 or EC50 that approximates it; bounds were set here for any values at or beyond the usual limits of such assays
SETTINGS: source organism: Mammarenavirus guanaritoense
MEASURED_QUANTITY: Kd
The answer consists of two parts: a number and, after it, its unit.

Kd recorded for this sequence, YEERLNEQLL , is 5.99 µM

---

SYSTEM_TESTED: HLA-B*53:01
ASSAY_METHOD_TEXT: IEDB peptide-MHC binding, purified MHC/competitive/radioactivity; filed as Kd, often an IC50 or EC50 that approximates it; bounds were set here for any values at or beyond the usual limits of such assays
SETTINGS: source organism: Mammarenavirus guanaritoense
MEASURED_QUANTITY: Kd (µM)
Unit µM implied. Number only.

Kd recorded for this sequence, TPNNFSSIV , is 7.58

---

SYSTEM_TESTED: HLA-A*11:01
ASSAY_METHOD_TEXT: IEDB peptide-MHC binding, purified MHC/competitive/fluorescence; filed as Kd, often an IC50 or EC50 that approximates it; bounds were set here for any values at or beyond the usual limits of such assays
SETTINGS: source organism: Orthomarburgvirus marburgense
MEASURED_QUANTITY: pKd
The scale used: pKd is minus the common logarithm of the concentration in molar units.

pKd recorded for this sequence, FLMRNAIQY , is 5.41

---

SYSTEM_TESTED: HLA-A*02:01
ASSAY_METHOD_TEXT: IEDB peptide-MHC binding, purified MHC/direct/fluorescence; filed as Kd, often an IC50 or EC50 that approximates it; bounds were set here for any values at or beyond the usual limits of such assays
SETTINGS: source organism: Mycobacterium tuberculosis str. Haarlem
pKd: −log10 of the molar value.
MEASURED_QUANTITY: pKd

pKd recorded for this sequence, WASGVPAAT , is ≤ 4.70

---

SYSTEM_TESTED: HLA-A*02:11
ASSAY_METHOD_TEXT: IEDB peptide-MHC binding, purified MHC/competitive/fluorescence; filed as Kd, often an IC50 or EC50 that approximates it; bounds were set here for any values at or beyond the usual limits of such assays
SETTINGS: source organism: Human immunodeficiency virus 1
MEASURED_QUANTITY: pKd
The scale used: pKd is minus the common logarithm of the concentration in molar units.

pKd recorded for this sequence, NTVATLYCV , is 9.15

---

SYSTEM_TESTED: HLA-A*03:01
ASSAY_METHOD_TEXT: IEDB peptide-MHC binding, purified MHC/direct/fluorescence; filed as Kd, often an IC50 or EC50 that approximates it; bounds were set here for any values at or beyond the usual limits of such assays
SETTINGS: source organism: La Crosse virus
pKd: −log10 of the molar value.
MEASURED_QUANTITY: pKd

pKd recorded for this sequence, YRKPSGGVF , is ≤ 4.70

---

SYSTEM_TESTED: HLA-B*40:01
ASSAY_METHOD_TEXT: IEDB peptide-MHC binding, purified MHC/direct/fluorescence; filed as Kd, often an IC50 or EC50 that approximates it; bounds were set here for any values at or beyond the usual limits of such assays
SETTINGS: source organism: Influenza A virus (A/South Carolina/1/1918(H1N1))
MEASURED_QUANTITY: Kd

Kd recorded for this sequence, RLFFKCIYR , is ≥ 20 µM

---

SYSTEM_TESTED: HLA-A*69:01
ASSAY_METHOD_TEXT: IEDB peptide-MHC binding, purified MHC/competitive/fluorescence; filed as Kd, often an IC50 or EC50 that approximates it; bounds were set here for any values at or beyond the usual limits of such assays
SETTINGS: source organism: Taterapox virus
MEASURED_QUANTITY: Kd

Kd recorded for this sequence, NTDAFSREY , is ≥ 20 µM

---

For each record, write down the corresponding Kd.
SYSTEM_TESTED: HLA-A*02:17
ASSAY_METHOD_TEXT: IEDB peptide-MHC binding, purified MHC/competitive/radioactivity; filed as Kd, often an IC50 or EC50 that approximates it; bounds were set here for any values at or beyond the usual limits of such assays
SETTINGS: source organism: Dengue virus 3 China/80-2/1980
Unit nM implied. Number only.

Kd recorded for this sequence, ALFSGVSWI , is 483

Kd recorded for this sequence, YILWENNIKL , is 10.1

---

SYSTEM_TESTED: HLA-A*02:01
ASSAY_METHOD_TEXT: IEDB peptide-MHC binding, purified MHC/competitive/fluorescence; filed as Kd, often an IC50 or EC50 that approximates it; bounds were set here for any values at or beyond the usual limits of such assays
SETTINGS: source organism: Orthomarburgvirus marburgense
MEASURED_QUANTITY: Kd (nM)
Unit nM implied. Number only.

Kd recorded for this sequence, FLMRNAIQY , is 254

---

SYSTEM_TESTED: HLA-A*03:01
ASSAY_METHOD_TEXT: IEDB peptide-MHC binding, purified MHC/direct/fluorescence; filed as Kd, often an IC50 or EC50 that approximates it; bounds were set here for any values at or beyond the usual limits of such assays
SETTINGS: source organism: Mycobacterium tuberculosis
pKd: −log10 of the molar value.
MEASURED_QUANTITY: pKd

pKd recorded for this sequence, VSAAGTTLR , is ≤ 4.70
